apparent Kd listing for selected sequences.
tested on: MS2 coat protein; assay: apparent Kd, MS2 coat protein; higher = weaker binding; RNA-MaP array; conditions: ligand present: theophylline; designed as: ON switch for theophylline

BIOSEQUENCE: UCACUCCUGAUGGAUACCAGUUACUAACGCAACAUGAGGAUCACCCAUGUGAACACUCAGAACCCUUGGCAGCCAGGAGAACGAA
UNIT_OF_MEASURE: nM
apparent Kd: 25.5

BIOSEQUENCE: AGUGGGUGUUAUGAUACCAGCGUAAUACACAACAUGAGGAUCACCCAUGUGGAGCCUCGCCGCCCUUGGCAGCAUUGGGCCCGCA
UNIT_OF_MEASURE: nM
apparent Kd: 344

BIOSEQUENCE: AUGCAACAUGAGGAUCACCCAUGUGGUGAUACCAGUCGACAAGUAGACCCUUGGCAGCACAGCCGAUAUCGAGAGAGAUUUUUGG
UNIT_OF_MEASURE: nM
apparent Kd: 650

BIOSEQUENCE: GUAACACAUGAGGAUCACCCAUGUUCCGAUACCAGUAUUGAAGAUUACCCUUGGCAGCGGGUAGGUCGGAGUGGACGGCCCGAGC
UNIT_OF_MEASURE: nM
apparent Kd: 26.1
